Tested System: T1, human GFRAL expressed on cells (human, UniProt Q6UXV0 20-394)
T1 sequence: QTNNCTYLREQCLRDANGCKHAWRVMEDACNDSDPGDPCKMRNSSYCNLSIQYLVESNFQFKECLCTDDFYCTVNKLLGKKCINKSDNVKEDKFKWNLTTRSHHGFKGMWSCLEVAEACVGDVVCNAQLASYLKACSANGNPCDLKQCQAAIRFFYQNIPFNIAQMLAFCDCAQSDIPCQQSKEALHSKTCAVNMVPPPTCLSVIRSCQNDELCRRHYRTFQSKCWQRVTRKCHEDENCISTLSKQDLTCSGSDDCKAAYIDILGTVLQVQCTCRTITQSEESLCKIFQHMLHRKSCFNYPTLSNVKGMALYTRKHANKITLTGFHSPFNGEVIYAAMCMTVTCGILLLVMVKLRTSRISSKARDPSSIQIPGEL
Procedure Text: cell-based or functional assay
Assignment: determine reported IC50, ELK1-luciferase reporter (hGFRAL/hRET) for the given binders.
Give bare numbers, in nM.

| Binder | Result Value |
| --- | --- |
| antibody designated 2B8 (antibody, V domains shown, mouse hybridoma monoclonal) VH: QIQLVQSGPELKKPGETVKISCKASGYTFTTYGMSWVKQAPGKIFKWMGWINTYSGVPTFVDDFRGRFAFSLETSASTAYLQIGNLKNEDTATYFCARRSSYYPYWYFDVWGTGTTVTVSS VL: DIQMTQSPASLSASVGETVTITCRPSENIYSYLTWFQQEQGKSPQLLVYNAQTLAEGVPSRFSGSGSGTHFSLKINSLQPEDFGTYYCQHYYGYPFTFGSGTKLEIK | 1.92 |
| antibody designated 1B3 (antibody, V domains shown, mouse hybridoma monoclonal) VH: QVHLQQPGAELVKPGASVKLSCKASGFTFTGYNINWVRLRPEQGLEWIGWIFPGDDNAKYNEKFKGKATLTTDKSSNTAYMQLSRLTSEDSAVYFCARTPVLSNYFDYWGQGTTLTVSS VL: DIQMTQSPSSLSASLGGKVTITCKASQDISKYISWYQHKPGKSPRLLIHYTSTLQPGIPSRFSGSGSGRDYSFSISNLEPEDIATYYCLQYDNLYTFGGGTKLEIK | 4.14 |
| antibody designated 8C10 (antibody, V domains shown, mouse hybridoma monoclonal) VH: QVQLQQSGVELARPGAAVKLSCKASGYTFANYGLTWVKQRTGQGLEWIGEIYPGSGHTHYNEDFKGKATLTADRSSSTAYMELRSLTSEDSAVYFCARRIQLLLPVGGFVYWGQGTLVTVSA VL: DFVLTQSPATLSVTPGDSVSLSCRASQSISNNLHWYQQKSHESPRLLIKYASQSISGIPSRFSGSGSGTDFTLSINSVETEDFGVYFCQQSNSWPHTFGGGTKLEIK | 1.79 |

Next, consider the following binder.
Give the measured IC50, ELK1-luciferase reporter (hGFRAL/hRET) of antibody designated 8D8 (antibody, V domains shown, mouse hybridoma monoclonal) VH: QVQLKESGPGLVAPSQSLSITCTVSGFSLSRYSVHWVRQPPGKGLEWLGMIWGFGSTDYNSALKSRLSITKDNSKSQFFLKMNSLQTDDTAMYYCARIHTTAGSYWGQGTLVTVSA VL: DIVMTQSQKFMSTSIGDRVSVTCKASQNVGTNVAWYQQKPGQSPKALVYSTSYRYSGVPDRFTGSGSGTDFTLTISNVQSEDLAEYFCHQYNSYPLTFGAGTKLELK .
2.11
